System: A498 renal
Assay: NCI tumour cell line growth inhibition, 48 h
In this section we review reported TGI values for a set of compounds.

Past entries and their recorded results:
compound	TGI
N#C/C(N)=C(\C#N)N=CNc1ccc(N)cc1	> 100 µM
Cc1ccc(C)c(NC(=O)CC2SC(=Nc3ccccc3Cl)NC2=O)c1 (stereo unspecified)	> 100 µM
CCOC(=O)C(O)(C(=O)OCC)c1cc(C(C)(C)C)c(O)c(C(C)(C)C)c1	> 100 µM
Cc1ccc(S(=O)(=O)N/N=C2/CC3CCC4CC2CC34)cc1 (stereo unspecified)	> 100 µM
COc1cc(NCCN=C(N)NC(N)=NC(C)C)c2ncccc2c1	> 100 µM
COc1ccc2c3c1OC1C34CCN(C)C(C2)C4=CC(I)C1(OC)OC (stereo unspecified)	56.7 µM

Missing value: TGI, A498 renal, entry `COc1cccc2cc(C(C)=O)c(=O)oc12` . Fill in? > 100 µM

What is its TGI for A498 renal? Entry: CNS(=O)(=O)OCC1OC(n2cnc3c(N)ncnc32)C(O)C1O (stereo unspecified) > 100 µM

Lab request: please report TGI under test system A498 renal for `COc1cc(-n2ccnc2)cc(OC)c1OC` > 100 µM

Param readout = TGI; param system = A498 renal; param query = C=CCc1cc(C(Cc2ccccc2)NC(C)C)cc(OCc2ccccc2)c1OCc1ccccc1 (stereo unspecified) ; response: value 29.2 µM

Item: `NNC(=O)c1ccc(OCc2nc3ccccc3[nH]2)cc1` Test system: A498 renal Read-out: TGI Value: ? > 100 µM
